Where these numbers come from: the supplement of paper PMC10567573

Please provide measured protein stability index for the entries that follow.
B1: RTP4 (parent)
chain: TYWEHWTSQGQVRMRLFGQRCQKC

Variants of: B1
ASSAY REMARKS: protein stability index of a GFP-peptide fusion (GPS, HEK-293T) (PSI 1-6); higher = more stable;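 further: lentivirally expressed fusions sorted by FACS into six bins by GFP to DsRed ratio, PSI derived from sequencing read proportions per bin multiplied by bin number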
SETTINGS: c terminus: a fixed tail appended
Numbers only.

SEQ STRING | OBSERVED RESULT
TYWEHWTSQTQVRMRLFGQRCQKC [G10T] | 2.27

Your task in this section: give protein stability index for each listed record.
1. TYWEHWTSQGQVRMDLFGQRCQKC [R15D]
2. TYWEHWTSQGQVRMRLFGQRCQKY [C24Y]

1. 2.71
2. 2.15

Your task in this section: give protein stability index for each listed record.
1. TYWEHWTSQGQVRMALFGQRCQKC [R15A]
2. TYWEHETSQGQVRMRLFGQRCQKC [W6E]
3. TYWEHWTSQGQVRMRLFGQRKQKC [C21K]
4. TYWEHWTSQGQVRWRLFGQRCQKC [M14W]
5. TYWEHWTGQGQVRMRLFGQRCQKC [S8G]

1. 2.06
2. 1.95
3. 2.45
4. 1.77
5. 2.05
